Assignment: determine reported switch fluorescence ratio for the given sequences.
# Test system: ATP;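 further: ATP exposure 15 min at 22 °C before imaging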
# TEST_SUMMARY: switch fluorescence ratio, 500 uM ATP over buffer (Cy3 cluster intensity, sum of 5 cycles each) (fold (ratio)); higher = stronger signal-on switching upon ATP binding; sequences stand for … in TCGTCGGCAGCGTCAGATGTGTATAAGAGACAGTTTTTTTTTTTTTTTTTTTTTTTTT…TC
# CONDITION_NOTES: aptamer strand: ATP DNA aptamer (quencher-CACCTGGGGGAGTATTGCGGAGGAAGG + anchor), 100 nM annealed; ATP concentration: 500 uM
Response field accepts a number only; no unit should be typed.

Req: Item under review: TATTAACCTT . Reported switch fluorescence ratio?
Resp: 1.64

Req: Quick one: switch fluorescence ratio for TTGTTGAAAC ?
Resp: 1.03

Req: Requested read-out: switch fluorescence ratio. Entry: CGAAAACTTT
Resp: 1.07

Req: // query switch fluorescence ratio value for entry TTCGCGGCAC
Resp: 2.44

Req: I am curious: what switch fluorescence ratio value has been reported for AGCGTGTGTG ?
Resp: 1.05

Req: # get_value(readout='switch fluorescence ratio', item= GGGTTTATGC )
Resp: 0.992

Req: Reported switch fluorescence ratio for CGTAAAAGAC : what is it?
Resp: 1.23

Req: So what does the record say about switch fluorescence ratio for CAAAATTTCG ?
Resp: 1.02

Req: // returns reported switch fluorescence ratio for input TTTTTTTATA
Resp: 0.991

Req: Any idea what its switch fluorescence ratio is? The sequence is CGGGAGAAAT
Resp: 1.24

###

Give switch fluorescence ratio for every item shown.
# System: ATP;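 further: ATP exposure 15 min at 22 °C before imaging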
# TEST_SUMMARY: switch fluorescence ratio, 500 uM ATP over buffer (Cy3 cluster intensity, sum of 5 cycles each) (fold (ratio)); higher = stronger signal-on switching upon ATP binding; sequences stand for … in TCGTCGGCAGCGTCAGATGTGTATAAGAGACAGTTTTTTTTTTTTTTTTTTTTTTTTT…TC
# CONDITION_NOTES: aptamer strand: ATP DNA aptamer (quencher-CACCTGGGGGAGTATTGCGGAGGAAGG + anchor), 100 nM annealed; ATP concentration: 500 uM
# print the numeric value only

Req: Fill blank: measured switch fluorescence ratio of the sequence CATAGGAGAC is ____.
Resp: 1

Req: Look up switch fluorescence ratio for this sequence: GCGAACGGAG
Resp: 0.998

Req: Given ATGGCAGCTG , state its recorded switch fluorescence ratio.
Resp: 0.995

Req: Dear colleague, I am looking for the recorded switch fluorescence ratio of the following sequence: TTAATAGTTG
Resp: 0.972

Req: Requested field: switch fluorescence ratio. Item: ATGACCTCGG
Resp: 1.02

Req: Would you mind telling me what switch fluorescence ratio value was observed for TTACTCGGGC ?
Resp: 0.999

Req: Suppose we examine the sequence TAAATATGGG ; what switch fluorescence ratio value has been reported?
Resp: 0.999

Req: I have this sequence here, TTCTAGGCGC , and I need its recorded switch fluorescence ratio.
Resp: 0.997

Req: Given AAATCAATGT , state its recorded switch fluorescence ratio.
Resp: 1.02

Req: What value of switch fluorescence ratio has been reported for the following sequence? TTATGCATGT
Resp: 1.02

Req: What switch fluorescence ratio value was documented for this sequence, CTATGGTATC ?
Resp: 1.02

Req: // switch fluorescence ratio lookup, key: TTGTGATTAG
Resp: 0.982

Req: What value of switch fluorescence ratio has been recorded for this entry: ACCGGGATGC
Resp: 3.66

Req: Request the reported switch fluorescence ratio associated with CCAGTAGTCT
Resp: 1.05

Req: Entry under review: CAAGGACTGT . Reported switch fluorescence ratio?
Resp: 1.05

Req: Sample GATAAAAGTT — what was its switch fluorescence ratio?
Resp: 1.02

Req: What value of measured switch fluorescence ratio is listed for TTTTTTGCCC ?
Resp: 1.02

Req: Dear colleague, I am looking for the recorded switch fluorescence ratio of the following sequence: GCCCTTGTCA
Resp: 1.01

Req: Entry under review: GCTGTTGGCG . Reported switch fluorescence ratio?
Resp: 0.973

Req: # get_value(readout='switch fluorescence ratio', item= TTTAAAGATT )
Resp: 1.01

Req: Suppose we examine the sequence TAGAACTGGG ; what switch fluorescence ratio value has been reported?
Resp: 1.05

Req: // returns reported switch fluorescence ratio for input GATTTGGTTG
Resp: 0.963

Req: If you can, please state the reported switch fluorescence ratio value of TATTAGGGGA .
Resp: 1.02

Req: What value of measured switch fluorescence ratio is listed for AGGGCTTTCT ?
Resp: 0.97

Req: Reported switch fluorescence ratio, sequence TTTTTCTAAA : ____
Resp: 0.983

Req: Reported switch fluorescence ratio for GTTAGTAGTG : what is it?
Resp: 0.952

Req: Endpoint output: switch fluorescence ratio of GGGTAAGAAA . Value?
Resp: 0.987

Req: // returns reported switch fluorescence ratio for input GATTTGCCGA
Resp: 1.03

Req: Could you share which switch fluorescence ratio value was measured for ATGGAAGTGG ?
Resp: 0.991

Req: Suppose we examine the sequence GATTTTAATG ; what switch fluorescence ratio value has been reported?
Resp: 0.981

Req: Can you share its switch fluorescence ratio? I mean this sequence: TGGGTTGGGA
Resp: 0.991

Req: Entry under review: TATCAGTGAT . Reported switch fluorescence ratio?
Resp: 1.02

Req: Data request, read-out switch fluorescence ratio, for GTTCTATCAG
Resp: 0.995

Req: I am curious: what switch fluorescence ratio value has been reported for ATCGTTATCA ?
Resp: 0.991

Req: Requested read-out: switch fluorescence ratio. Entry: GAGATTAATT
Resp: 0.967

Req: Field request: switch fluorescence ratio | item: CATGGTCATT
Resp: 1

Req: Give the measured switch fluorescence ratio of GGTTAGTACA .
Resp: 1.01

Req: Bench note: what switch fluorescence ratio did CGCGAGCGTT show?
Resp: 0.995

Req: # switch fluorescence ratio lookup, item TCGGATAAGT
Resp: 1.01

Req: Could you tell me which switch fluorescence ratio is on file for TGGGGGTACG ?
Resp: 1.03

Req: Report switch fluorescence ratio for CCAATAAGGG please.
Resp: 0.994

Req: What switch fluorescence ratio value was documented for this sequence, GCCGGGTACG ?
Resp: 0.992

Req: Item AGTAGTTGGC has what recorded switch fluorescence ratio?
Resp: 1.01

Req: Which measured switch fluorescence ratio value corresponds to AATTCATAGT ?
Resp: 0.978

Req: Look up switch fluorescence ratio: GGGCCGGCTG
Resp: 1.01

Req: Which value of switch fluorescence ratio has been reported for CTTAGTCGGC in the records?
Resp: 0.967

Req: Which switch fluorescence ratio value belongs to GACTGATACC ?
Resp: 1.17

Req: Quick check: switch fluorescence ratio of ATGCACTGGG ?
Resp: 1.08

Req: Entry ATGGCGACGA has what switch fluorescence ratio?
Resp: 1.03

Req: Requested field: switch fluorescence ratio. Item: ATTTAGTTTT
Resp: 0.976

Req: Give its switch fluorescence ratio value. Item: TTTAGAGATG
Resp: 1.24

Req: Return reported switch fluorescence ratio; argument: TAAGTGGTA
Resp: 0.993

Req: Quick check: switch fluorescence ratio of ATGCGGGTGC ?
Resp: 1.04

Req: Quick one: switch fluorescence ratio for ATGGAGGGTA ?
Resp: 0.99

Req: Could you share which switch fluorescence ratio value was measured for GACAGGGTTG ?
Resp: 1

Req: Could you tell me which switch fluorescence ratio is on file for ATTCGAATCG ?
Resp: 1.05

Req: Which switch fluorescence ratio reading was recorded for the sequence GGGGGGCTTG ?
Resp: 1.02

Req: Quick check: switch fluorescence ratio of TGGGGTGTTG ?
Resp: 0.983

Req: # get_value(readout='switch fluorescence ratio', item= ATGGGGGGT )
Resp: 0.992

Req: # get_value(readout='switch fluorescence ratio', item= AGGGAATAAA )
Resp: 1

Req: Record request: switch fluorescence ratio value, item AATAATGCTT
Resp: 0.978

Req: Any idea what its switch fluorescence ratio is? The sequence is GGTGGGTACG
Resp: 0.986

Req: Which value of switch fluorescence ratio has been reported for TTTTCATTTT in the records?
Resp: 1.05

Req: So what's the measured switch fluorescence ratio for this one? ATGGTTTGTA
Resp: 0.974

Req: Query: switch fluorescence ratio; subject: CCGCCACCTG
Resp: 1.56

Req: Which measured switch fluorescence ratio value corresponds to TACGTACGTT ?
Resp: 1.41

Req: Look at this sequence and give its reported switch fluorescence ratio. TTGACTGTTC
Resp: 1.04

Req: # get_value(readout='switch fluorescence ratio', item= GAATTTGTTA )
Resp: 1.03

Req: Name the reported switch fluorescence ratio value associated with the sequence GTCGGTGTTG
Resp: 0.99

Req: switch fluorescence ratio lookup needed for GTTTATAGGG , thanks.
Resp: 0.985

Req: Requested read-out: switch fluorescence ratio. Entry: TTACGCGAAA
Resp: 2.57

Req: Returns the measured switch fluorescence ratio for the input sequence. Input: AGGAGAAAAG
Resp: 1.22

Req: # query: switch fluorescence ratio of entry ACTGTCGCCA
Resp: 1.02

Req: # query: switch fluorescence ratio of entry GCGGTGGGTG
Resp: 0.994

Req: Can you share its switch fluorescence ratio? I mean this sequence: GGGGGGGTGG
Resp: 1

Req: For CCTGGGTGAA , what is its reported switch fluorescence ratio?
Resp: 1.2

Req: Entry under review: AAAGCTCTGT . Reported switch fluorescence ratio?
Resp: 0.992

Req: Tell me the measured switch fluorescence ratio of TGGGTGATCG , please.
Resp: 1.03

Req: Please give the measured switch fluorescence ratio for this sequence: GGTTTAGAGA
Resp: 1.02

Req: For TGTAATTGGG , what is its reported switch fluorescence ratio?
Resp: 0.988

Req: Can you share its switch fluorescence ratio? I mean this sequence: CATGTTTAGG
Resp: 0.986

Req: Entry TTTTTTTGAG has what switch fluorescence ratio?
Resp: 1.02

Req: Which switch fluorescence ratio is reported for this sequence? TCAGTCAGCT
Resp: 1

Req: switch fluorescence ratio lookup needed for TCGGGTATCG , thanks.
Resp: 0.976

Req: Could you tell me which switch fluorescence ratio is on file for GATTCCTCAT ?
Resp: 1.01

Req: Quick one: switch fluorescence ratio of TTACTGAACT ?
Resp: 1.19
